The origin of these recorded values is ChEMBL document CHEMBL4351021.

- assayed.system: Free fatty acid receptor 1 (Homo sapiens)
- protocol.text: Agonist activity at FFA1 receptor (unknown origin) stably expressed in CHO cells assessed as increase in calcium flux by Fluo4-AM based FLIPR assay
EC50: recorded values

molecular.string	EC50 / nM
CCOc1cc(C)c(-c2cccc(COc3ccc(OCC(=O)O)c(F)c3)c2)c(C)c1	69.3
Cc1ccc(-c2cccc(CNc3ccc(OCC(=O)O)c(F)c3)c2)c(Cl)c1	22.5
CCOc1ccc(-c2cccc(CNc3ccc(OCC(=O)O)c(F)c3)c2)c(C)c1	11.6
COCCOc1ccc(-c2cccc(CNc3ccc(OCC(=O)O)c(F)c3)c2)c(C)c1	41.9
Cc1cc(O)ccc1-c1cccc(CNc2ccc(OCC(=O)O)c(F)c2)c1	69.6
Cc1cc(OCCCS(C)(=O)=O)cc(C)c1-c1cccc(CNc2ccc(OCC(=O)O)c(F)c2)c1	59.8
Cc1noc(C)c1-c1cccc(CNc2ccc(OCC(=O)O)c(F)c2)c1	225
O=C(O)COc1ccc(NCc2cccc(-c3ccccc3F)c2)cc1F	36.5
CCOc1cc(C)c(-c2cccc(CNc3ccc(OCC(=O)O)cc3)c2)c(C)c1	197
CCCOc1cc(C)c(-c2cccc(CNc3ccc(OCC(=O)O)c(F)c3)c2)c(C)c1	38.7

* * *

- protocol.text: Half life in Sprague-Dawley rat at 10 mg/kg, po measured for […] by LC-MS/MS analysis
- Format: ADME, organism-based
- particulars: in vivo
The following compounds are shown together with reported half-life values.
readout.kind: half-life (h)

molecular.string	measurement
Cc1cc(OCCCS(C)(=O)=O)cc(C)c1-c1cccc(COc2ccc3c(c2)OC[C@H]3CC(=O)O)c1	4.32
O=C(O)COc1ccc(NCc2cccc(-c3ccccc3C(F)(F)F)c2)cc1F	4.84
Cc1ccccc1-c1cccc(CNc2ccc(OCC(=O)O)c(F)c2)c1	5.42

* * *

- System: Hepatocyte
- protocol.text: Hepatotoxicity in sandwich-cultured Sprague-Dawley rat hepatocytes assessed as inhibition of hepatobiliary transport by measuring biliary excretion index at 25 uM incubated for 15 mins followed by d8-TCA addition and measured after 15 mins by LC-MS/MS analysis
- Format: toxicity, cell-based
- particulars: 0.25 h
# Activity_index per record follows
readout.kind: Activity_index (%)

molecular.string	measurement
Cc1ccccc1-c1cccc(CNc2ccc(OCC(=O)O)c(F)c2)c1	12.3
CCOc1ccc(-c2cccc(CNc3ccc(OCC(=O)O)c(F)c3)c2)c(C)c1	19.3
Cc1cc(OCCO)ccc1-c1cccc(CNc2ccc(OCC(=O)O)c(F)c2)c1	14.3
O=C(O)COc1ccc(NCc2cccc(-c3ccccc3C(F)(F)F)c2)cc1F	29.6

* * *

Listing: pEC50 of selected compounds
- assayed.system: Free fatty acid receptor 1 (Homo sapiens, UniProt O14842)
- Sequence (O14842 whole entry): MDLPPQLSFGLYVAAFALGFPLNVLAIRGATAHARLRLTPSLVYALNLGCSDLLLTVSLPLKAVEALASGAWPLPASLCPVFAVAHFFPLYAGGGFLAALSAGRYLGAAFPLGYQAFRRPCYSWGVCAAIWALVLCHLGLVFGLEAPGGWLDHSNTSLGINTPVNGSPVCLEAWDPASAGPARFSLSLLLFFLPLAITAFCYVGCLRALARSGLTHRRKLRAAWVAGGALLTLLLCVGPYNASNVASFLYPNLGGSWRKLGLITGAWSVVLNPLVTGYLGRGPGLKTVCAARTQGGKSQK
- protocol.text: Agonist activity at FFA1 receptor (unknown origin) stably expressed in CHO cells assessed as increase in calcium flux by Fluo4-AM based FLIPR assay
pEC50: −log10 of the molar value.

molecular.string	reading.qualifier	pEC50
Cc1cc(OCCO)ccc1-c1cccc(CNc2ccc(OCC(=O)O)c(F)c2)c1	=	7.44
N#Cc1ccccc1-c1cccc(CNc2ccc(OCC(=O)O)c(F)c2)c1	=	6.14
COc1ccccc1-c1cccc(CNc2ccc(OCC(=O)O)c(F)c2)c1	=	6.27
CCOc1cc(C)c(-c2cccc(CNc3ccc(OCC(=O)O)c(F)c3)c2)c(C)c1	=	7.62
COCCOc1cc(C)c(-c2cccc(CNc3ccc(OCC(=O)O)c(F)c3)c2)c(C)c1	=	7.29
CC(C)c1ccccc1-c1cccc(CNc2ccc(OCC(=O)O)c(F)c2)c1	=	7.06
CO/N=C(\COc1ccc(CNc2ccc(OCC(=O)O)c(F)c2)cc1)c1ccccc1	=	6.40
CCOc1cc(C)c(-c2cccc(COc3ccc(NCC(=O)O)c(F)c3)c2)c(C)c1	<	6.00
O=C(O)COc1ccc(NCc2cccc(-c3ccccc3C(F)(F)F)c2)cc1F	=	7.80
O=C(O)COc1ccc(NCc2cccc(-c3ccccc3Cl)c2)cc1F	=	7.71
